Hi there, I'd appreciate the recorded melting point for every entry that follows.

Nc1nc2nc(S)n(CCO)c2c(=O)[nH]1 [21a, 7-(2-Hydroxyethyl)-8-mercaptoguanine] :: > 300 °C
Nc1nc2c(nc(S)n2CCc2ccccc2)c(=O)[nH]1 [15d, 8-Mercapto-9-phenethylguanine] :: 291 to 295 °C (dec.)
Nc1nc2c(nc(S)n2Cc2ccccc2)c(=O)[nH]1 [15c, 8-Mercapto-9-benzylguanine] :: > 300 °C (dec.)

For each of the items listed, what is its melting point?
1. NCCn1c(S)nc2nc(N)[nH]c(=O)c21 [21c, 7-(2-Aminoethyl)-8-mercaptoguanine]
2. CNc1nc2nc(N)[nH]c(=O)c2[nH]1 [10a, 8-(Methylamino)guanine]
3. CCn1c(S)nc2c(=O)[nH]c(N)nc21 [15b, 8-Mercapto-9-ethylguanine]
4. Nc1nc2nc(S)n(CC(=O)O)c2c(=O)[nH]1 [21b, 2-(8-Mercaptoguanin-7-yl)acetic acid]
5. N=C(N)NCCn1c(S)nc2nc(N)[nH]c(=O)c21 [21e, 7-(2-Guanidinoethyl)-8-mercaptoguanine]
6. NCCCn1c(S)nc2nc(N)[nH]c(=O)c21 [21d, 7-(3-Aminopropyl)-8-mercaptoguanine]

280 to 287 °C (dec.)
252 to 257 °C (dec.)
240 to 244 °C (dec.)
247 to 253 °C (dec.)
256 to 262 °C (dec.)
239 to 243 °C (dec.)

====

Biological target: SaHPPK (Staphylococcus aureus, UniProt A0A0H3JXR3)
Sequence (A0A0H3JXR3 entry or part of it): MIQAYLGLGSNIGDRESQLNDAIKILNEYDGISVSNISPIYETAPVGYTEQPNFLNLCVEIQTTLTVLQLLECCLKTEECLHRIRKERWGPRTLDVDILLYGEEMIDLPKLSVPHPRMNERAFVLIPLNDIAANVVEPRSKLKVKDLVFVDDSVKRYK
Test: ITC binding to SaHPPK
Settings: 298 K
Exercise: state measured ΔH for each of the compounds provided.
Numbers only, in kcal/mol.

Check out these entries, answers already filled in.
NCCCn1c(S)nc2nc(N)[nH]c(=O)c21 [21d, 7-(3-Aminopropyl)-8-mercaptoguanine] :: -6.2
N=C(N)NCCn1c(S)nc2nc(N)[nH]c(=O)c21 [21e, 7-(2-Guanidinoethyl)-8-mercaptoguanine] :: -4.3
NCCn1c(S)nc2nc(N)[nH]c(=O)c21 [21c, 7-(2-Aminoethyl)-8-mercaptoguanine] :: -5.8

Annotate the compound Nc1nc2nc(S)n(CCO)c2c(=O)[nH]1 [21a, 7-(2-Hydroxyethyl)-8-mercaptoguanine] with its measured ΔH.
-10.5

====

I'd appreciate it if you could supply pKd values for the items below.
Molecular target: UniProt A0A0H3JXR3
Assay: ITC binding to SaHPPK
Conditions: 298 K, read-out: K D ITC
Numbers only, as −log10 of the molar value.

Reference set, count: 3
NCCn1c(S)nc2nc(N)[nH]c(=O)c21 [21c, 7-(2-Aminoethyl)-8-mercaptoguanine] :: 4.65
NCCCn1c(S)nc2nc(N)[nH]c(=O)c21 [21d, 7-(3-Aminopropyl)-8-mercaptoguanine] :: 4.46
N=C(N)NCCn1c(S)nc2nc(N)[nH]c(=O)c21 [21e, 7-(2-Guanidinoethyl)-8-mercaptoguanine] :: 4.45

Then there is this compound:
Identify the reported pKd for the following entry. Nc1nc2nc(S)n(CCO)c2c(=O)[nH]1 [21a, 7-(2-Hydroxyethyl)-8-mercaptoguanine]
4.78

====

Target: SaHPPK (Staphylococcus aureus, UniProt A0A0H3JXR3)
Experiment: SPR binding to SaHPPK
Details: SPR, in the presence of 10 mM Mg2+; 293 K; read-out: K D a
Task for the reader: assign each of the following compounds its reported Kd.
Answers are plain numbers, in µM.

Below are worked cases with known answers.
N=C(N)NCCn1c(S)nc2nc(N)[nH]c(=O)c21 [21e, 7-(2-Guanidinoethyl)-8-mercaptoguanine] :: 30
Cn1c(S)nc2c(=O)[nH]c(N)nc21 [15a] :: 194

Provide Kd for all items below, preserving their order.
1. Nc1nc2c(nc(S)n2Cc2ccccc2)c(=O)[nH]1 [15c, 8-Mercapto-9-benzylguanine]
2. Nc1nc2c(nc(S)n2CCc2ccccc2)c(=O)[nH]1 [15d, 8-Mercapto-9-phenethylguanine]

[106, 145]
